These data points were gathered from patent US20240409645A1.

# key: entry, value: OD (PE binding ELISA)
Molecular target: T1, human IL-2Rα (human, UniProt P01589 22-240, limits assumed)
T1 construct: recombinant protein; also called hu IL-2R; human IL-2Ra
T1 sequence: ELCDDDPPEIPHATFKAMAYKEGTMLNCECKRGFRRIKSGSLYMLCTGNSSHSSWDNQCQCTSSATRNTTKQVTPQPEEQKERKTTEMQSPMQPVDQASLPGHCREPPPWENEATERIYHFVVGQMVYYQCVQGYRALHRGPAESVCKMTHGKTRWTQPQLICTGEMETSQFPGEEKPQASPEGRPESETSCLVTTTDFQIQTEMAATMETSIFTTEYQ
Test: ELISA, P.E. on coated antigen
readout-label: OD (PE binding ELISA) (OD450 nm)

binder	readout-label	recorded-value
4-MP01F04 (VHH, periplasmic extract; also called FJ1427_P035MP01F04) VHH: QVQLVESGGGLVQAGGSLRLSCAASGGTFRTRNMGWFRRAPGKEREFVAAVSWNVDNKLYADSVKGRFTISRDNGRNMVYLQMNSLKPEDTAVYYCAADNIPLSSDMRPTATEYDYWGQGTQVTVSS	OD (PE binding ELISA)	2.49
FJ1427_P035MP05B08 (VHH, periplasmic extract; also called clone nr) VHH: QLQLVESGGGLVQAGGSLRLSCVAHGLTFDGYAIGWFRQAPGKELEGVSYITGSDGSRYYADSVKGRFTISSDVAKNTVYLHMNNLKPDDAARYYCAVDRLGSRGAYVSAWWRSSDMDLWGKGTLVTVSS	OD (PE binding ELISA)	1.88
FJ1427_P035MP05H01 (VHH, periplasmic extract; also called clone nr) VHH: EVQLVESGGGLVQAGGSLRLSCAASGITFNDHTMAWFRQAPGKEREFVAARDWSDIITRYASSVKGRFTISRDNAGNTGFLQMNSLRPEDTAVYYCAAREGGVVAGVRSGAPYDYWGQGTQVTVSS	OD (PE binding ELISA)	2.62
FJ1427_P035MP01G01 (VHH, periplasmic extract; also called clone nr) VHH: QVQLQESGGGLVQAGGSLRLSCAASGRTFRTHNMGWFRRAPGKEREFVAAISWNVDNTLYADSVKGRFTISRDNDRNMVYLQMNSLKPEDTAVYFCAADNIPLSSDVRATATEFGYWGQGTRVTVSS	OD (PE binding ELISA)	2.52
FJ1427_P035MP01E05 (VHH, periplasmic extract; also called clone nr; 37) VHH: QVQLVESGGGLVQAGGSLRLSCAASGRTFRTHNMGWFRRAPGEEREFVAVISWNVDNKLYADSVKGRFTISRDNGRNMVYLQMNSLKPEDTAVYYCAADNIPLSSDVRATATEFGYWGQGTQVTVSS	OD (PE binding ELISA)	2.59
FJ1427_P035MP01H11 (VHH, periplasmic extract; also called clone nr; 88) VHH: QVQLVESGGGLVQAGGSLRLSCAASGRTFRTHNMGWFRRAPGKEREFVAAISWNVDNTLYADSVKGRFTISRDNDRNMVYLQMNSLKPEDTAVYFCAADNIPLSSDVRATATEFGYWGQGTRVTVSS	OD (PE binding ELISA)	2.62
FJ1427_P035MP01H07 (VHH, periplasmic extract; also called clone nr; 56) VHH: EVQLVESGGGLVQAGGSLRLSCAASGRTLSGYAMAWFRQPPDKGREFVTAISSSGIVTHVLDSVKGRFTISRDNAKNTVYLQMNSLQPEDTALYFCAATASSYSDYEANYNYWGQGTLVTVSS	OD (PE binding ELISA)	2.14
FJ1427_P035MP05H02 (VHH, periplasmic extract; also called clone nr; 400) VHH: EVQLVESGGGLVQAGGSLRLSCAASGITFNDHTMAWFRQAPGKEREFVAARDWSDIITRYAGSVKGRFTISRDNAGNTGFLQMNSLRPEDTAVYYCAAREGGVVAGVRSGAPYDYWGQGTQVTVSS	OD (PE binding ELISA)	2.29
FJ1427_P035MP05E11 (VHH, periplasmic extract; also called clone nr) VHH: EVQLVESGGGSVQAGGSLRLSCAASGRTLYSSYGMAWFRQAPGKERDFVGSISRYGTYTSYADSVKDRFTISRDNAKSTVYLQMNNTKPEDTAVYYCAAYTYSGSFYSTVKTHRDEYQYWGQGTQVTVSS	OD (PE binding ELISA)	2.35
FJ1427_P035MP01G04 (VHH, periplasmic extract; also called clone nr; 31) VHH: QVQLVESGGGLVQPGGSLRLSCAASGFTFSNNFMSWVRQAPGKGLEWVSTISYFGDSTRYAESVKGRFTISRDNEKNTLHLQMNNLKPEDTAVYYCAKATSYDSIRSGSRGRGTQVTVSS	OD (PE binding ELISA)	2.79
13-MP05E12 (VHH, periplasmic extract; The row prints V ID 13-MP05E12 beside Clone ID ...MP05H07; clone nr; also called FJ1427_P035MP05H07) VHH: QVQLQESGGGLVQAGDSLRLSCAASGFNFGWHAMGWFRQAPGKEREFVATITWTGRDTYYADSVRGRFTISKDNAKDTLFLQMNSLRPDDTGVYYCAKARERATWAYSEDDCDYWGQGTQVTVSS	OD (PE binding ELISA)	2.34
FJ1427_P035MP05A07 (VHH, periplasmic extract; also called clone nr) VHH: QVQLVESGGGLAQAGASLRLSCAASGRTLYSSYGMAWFRQAPGKERDFVGSISRYGTYTSYADSVKGRFTISRDNAKSTVYLQMNNTKPEDTAVYYCAAYTYSGSFYSTVKTHRDEYQYWGQGTQVTVSS	OD (PE binding ELISA)	2.43
FJ1427_P035MP01E07 (VHH, periplasmic extract; also called clone nr; 53) VHH: QVQLQESGGGLVQAGDSLRLSCAASGRSFRNYILAWYRQAPGKEREFLAAISWLEGTLYADSVEDRFTISRDNPKNTVHLQMDSLKPEDTAVYYCAADRGPVRPVLAPDVDYWGQGTQVTVSS	OD (PE binding ELISA)	2.73
2-MP01A02 (VHH, periplasmic extract; also called FJ1427_P035MP01A02) VHH: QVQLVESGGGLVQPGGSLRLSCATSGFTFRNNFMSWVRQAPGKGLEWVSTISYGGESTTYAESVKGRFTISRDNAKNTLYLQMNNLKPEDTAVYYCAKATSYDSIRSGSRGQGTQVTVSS	OD (PE binding ELISA)	2.62
FJ1427_P035MP05C11 (VHH, periplasmic extract; also called clone nr) VHH: QVQLVESGGGLVQAGGSLRLSCTASGLTFEGYAIGWFRQAPGKEREGVSYITGSDASTYYIDSVKGRFTISSDFAKSTVYLQMNNLKPEDTAVYYCAVDRLGSRGGYASSWWRSGDMDLWGKGTLVTVSS	OD (PE binding ELISA)	2.14
